Biological target: Stb4 (UniProt P50104)
Sequence (P50104 whole entry): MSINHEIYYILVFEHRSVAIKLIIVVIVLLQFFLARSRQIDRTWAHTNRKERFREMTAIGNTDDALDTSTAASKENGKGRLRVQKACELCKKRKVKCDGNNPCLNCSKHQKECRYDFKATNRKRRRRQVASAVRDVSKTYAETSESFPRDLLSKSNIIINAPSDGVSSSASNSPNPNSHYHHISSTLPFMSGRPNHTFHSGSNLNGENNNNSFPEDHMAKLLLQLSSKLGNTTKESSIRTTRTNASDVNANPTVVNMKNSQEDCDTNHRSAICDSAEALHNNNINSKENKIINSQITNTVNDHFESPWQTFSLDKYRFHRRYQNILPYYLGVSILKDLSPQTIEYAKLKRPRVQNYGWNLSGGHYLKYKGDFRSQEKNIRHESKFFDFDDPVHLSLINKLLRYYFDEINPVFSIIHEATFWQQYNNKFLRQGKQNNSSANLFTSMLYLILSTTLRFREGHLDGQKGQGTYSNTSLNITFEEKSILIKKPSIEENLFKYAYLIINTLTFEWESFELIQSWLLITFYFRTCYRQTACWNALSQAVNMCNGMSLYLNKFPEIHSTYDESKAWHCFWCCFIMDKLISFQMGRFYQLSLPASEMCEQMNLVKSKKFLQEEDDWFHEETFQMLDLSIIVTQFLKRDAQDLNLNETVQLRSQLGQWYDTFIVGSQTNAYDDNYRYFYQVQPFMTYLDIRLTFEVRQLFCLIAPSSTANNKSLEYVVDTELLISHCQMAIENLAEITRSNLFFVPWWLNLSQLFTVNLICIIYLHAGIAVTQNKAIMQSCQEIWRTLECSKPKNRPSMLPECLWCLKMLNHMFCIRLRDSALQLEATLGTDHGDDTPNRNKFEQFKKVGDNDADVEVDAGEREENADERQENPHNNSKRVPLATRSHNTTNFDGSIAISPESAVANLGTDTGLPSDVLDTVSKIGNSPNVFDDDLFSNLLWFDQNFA
Experiment: PBM E-score (8-mer binding enrichment) (E-score (-0.5 to 0.5)); higher = stronger / more preferred TF binding
Conditions: protein concentration: 200 nM; construct: GST-DNA-binding domain
Over roughly 33,000 sequences, “E-score (-0.5 to 0.5)” has its median near -0.056; the highest 2% begin near 0.38. Shown is part of a subset that was picked to be rich in the highest values.
result-type: PBM E-score
Simply state the number, no unit and no words.

Entry under test: GGCTCGGA . Its PBM E-score was 0.466

Continuing:
In plain terms, AGCTCGGA has a documented PBM E-score of 0.454

What the record says about CGCTCGCA : PBM E-score is 0.104

For reference, reported PBM E-score for GGCTCGTA stands at -0.0188
